Where do these numbers come from? They come from ChEMBL document CHEMBL4270512.

# assay method text: Inhibition of bovine kidney alpha-fucosidase at 0.1 mM using p-nitrophenyl glycopyranoside as substrate preincubated for 5 mins followed by substrate addition and measured after 20 mins by visible absorption spectroscopic analysis relative to control
# Design: species or system Bos taurus
reported property: IC50 (µM)
Give just the numeric value; µM need not be written.

stdin: Entry CCCCCCn1cc(CNC(=O)c2cc([C@H]3NC[C@@H](O)[C@H]3O)oc2C)nn1 has what IC50?
stdout: 37

----------
# assayed target: Beta-galactosidase (Bos taurus)
# Sequence (Q58D55 whole entry): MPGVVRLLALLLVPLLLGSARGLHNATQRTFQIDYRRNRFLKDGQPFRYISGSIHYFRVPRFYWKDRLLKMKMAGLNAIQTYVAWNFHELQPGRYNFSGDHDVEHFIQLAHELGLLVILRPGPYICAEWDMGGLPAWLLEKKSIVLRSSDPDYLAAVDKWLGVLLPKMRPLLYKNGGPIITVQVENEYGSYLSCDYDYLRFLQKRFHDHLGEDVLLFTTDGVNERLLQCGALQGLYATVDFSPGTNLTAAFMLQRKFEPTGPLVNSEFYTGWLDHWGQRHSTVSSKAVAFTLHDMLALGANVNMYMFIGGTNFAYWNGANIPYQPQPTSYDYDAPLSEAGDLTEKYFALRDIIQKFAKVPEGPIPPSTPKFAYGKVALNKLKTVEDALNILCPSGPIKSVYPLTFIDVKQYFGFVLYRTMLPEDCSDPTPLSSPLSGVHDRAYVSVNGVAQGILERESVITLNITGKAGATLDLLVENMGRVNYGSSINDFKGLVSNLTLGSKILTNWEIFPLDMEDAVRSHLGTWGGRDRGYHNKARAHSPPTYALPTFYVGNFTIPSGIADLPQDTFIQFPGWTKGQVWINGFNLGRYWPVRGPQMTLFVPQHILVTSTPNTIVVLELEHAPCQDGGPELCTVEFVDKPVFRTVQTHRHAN
Reported Ki values follow for various molecules
Give just the numeric value; µM need not be written.

Cc1oc([C@H]2NC[C@@H](O)[C@H]2O)cc1C(=O)NCc1cn(CCCCCCCCCCCCn2cc(CNC(=O)c3cc([C@H]4NC[C@@H](O)[C@H]4O)oc3C)nn2)nn1 ... 5.8

Now look at this one.
stdin: Entry CCCCCCn1cc(CNC(=O)c2cc([C@H]3NC[C@@H](O)[C@H]3O)oc2C)nn1 has what Ki?
stdout: 58

----------
# assay method text: Competitive inhibition of bovine kidney alpha-fucosidase using p-nitrophenyl glycopyranoside as substrate preincubated for 5 mins followed by substrate addition and measured after 20 mins by Lineweaver-Burk plot analysis
# Set-up: species or system Bos taurus
reported property: pKi
Convention used: pKi is expressed as -log10 of the molar concentration.

C[C@@H]1N[C@@H](c2cn(-c3ccccc3)nn2)[C@H](O)[C@@H]1O ... 8.17
C[C@@H]1N[C@@H](c2cn(-c3ccc(S(=O)(=O)c4ccc(N=[N+]=[N-])cc4)cc3)nn2)[C@H](O)[C@@H]1O ... 9.70
C[C@@H]1N[C@@H](c2cn(CCCCCCn3cc([C@@H]4N[C@@H](C)[C@@H](O)[C@H]4O)nn3)nn2)[C@H](O)[C@@H]1O ... 7.82
C#C[C@H]1[C@H](O)[C@H](O)[C@H](C)N1C(=O)OC(C)(C)C ... 9.70
C[C@@H]1N[C@@H](c2c[nH]nn2)[C@H](O)[C@@H]1O ... 6.52

Now look at this one.
stdin: Entry C[C@@H]1N[C@@H](c2cn(CCOCCOCCOCCn3cc([C@@H]4N[C@@H](C)[C@@H](O)[C@H]4O)nn3)nn2)[C@H](O)[C@@H]1O has what pKi?
stdout: 7.37
